Test system: NCI-H460 lung
Experiment Notes: NCI-60 one-dose screen, 48 h
Details: 10 µM
This is part of a sample that, as a whole, favours compounds with a hit. Of some 83,000 tested, about 20% had one in any assay. Activity calls are given as the source filed them. How the source made its calls: active means growth percent below 10; inactive means the rest.
Your answer must be one of the following: active, inactive

Consider the worked cases shown below.
COC(=O)C1=NNC(=S)N(c2cc(C)[nH]n2)C(=O)C1 | inactive
COc1cc(Cc2cc(-c3ccc(Cl)cc3)n[nH]c2=O)ccc1O | inactive
Nc1c(C(=O)Nc2cccc(Br)c2)sc2nc3c(cc12)C(O)CCC3 (configuration not stated) | inactive

Q: Assay outcome for `COc1cc(/C=N/NC(=O)c2ccccc2Nc2ccnc(C(F)(F)F)c2)ccc1O` : what was it?
Result: inactive

Q: Assay outcome for `ClCC#CCSc1ncnc2c1ncn2CC#CCCl` : what was it?
Result: active

Q: Assay outcome for `O=C1/C(=C\c2ccc(F)cc2)CN(C(=O)c2ccccc2F)C/C1=C\c1ccc(F)cc1` : what was it?
Result: inactive

Q: Assay outcome for `COc1ccc(/C=C2/CN(C(=O)c3ccccc3F)C/C(=C\c3ccc(OC)cc3)C2=O)cc1` : what was it?
Result: inactive

Q: Assay outcome for `CC(=O)[C@H]1CC[C@H]2[C@@H]3CCC4=CC(=O)C=C[C@]4(C)[C@H]3CC[C@]12C` : what was it?
Result: inactive

Q: Assay outcome for O=C(CC(NC(=O)OCc1ccccc1)C(=O)OCc1ccccc1)OCc1ccccc1 (configuration not stated) : what was it?
Result: inactive

Q: Assay outcome for `COc1ccc(-c2csc(NC(=O)CSc3nc(C)c(-c4ccccc4)n3Nc3ccccc3)n2)cc1` : what was it?
Result: inactive

Q: Assay outcome for `Cc1ccc(C(=O)N2C/C(=C/c3ccccc3)C(=O)/C(=C/c3ccccc3)C2)cc1` : what was it?
Result: inactive

// data source = PubChem BioAssay (NCI)
